- Read-out: Glutamate-cysteine ligase catalytic (GCLC), GCLC (gene 2729)
- experiment description: LTEA_HepaRG_GCLC: Life Technologies and Expression Analysis (LTEA) Assay for Glutamate-cysteine ligase catalytic (GCLC) using HepaRG (AID 2283498)
- measurement parameters: mRNA level, 48 h; actives raise or lower the signal
The source made the active and inactive calls. The calls were made as follows: active = hit-call score of the fitted dose curve at least 0.9, where 1 is the maximum; inactive = score below 0.9.
One label from this list, please: 1.0 for active, 0.0 for inactive

Which result was noted for this molecule in the test: "O=C(O)C1(C(=O)Nc2ccc(Cl)cc2Cl)CC1" 1.0

Record: "S=C([S-])NCCNC(=S)[S-].[Mn+2]" 0.0

Record: "Cc1nn(C)c(Oc2ccccc2)c1C=NOCc1ccc(C(=O)OC(C)(C)C)cc1" 0.0

Record: CCCCC(CC)CN1C(=O)C2C3C=CC(C3)C2C1=O (configuration not stated) 0.0

Record: "O=C(c1ccc(O)cc1O)c1ccc(O)cc1O" 0.0

Record: "S=C(S)NCCNC(=S)S.[Mn+2].[S-]C([S-])=NCCN=C([S-])[S-].[Zn+2]" 0.0

Record: "C[C@]12C[C@H](O)[C@H]3[C@@H](CCC4=CC(=O)CC[C@@]43C)[C@@H]1CC[C@@H]2C(=O)CO" 0.0

Reference source: PubChem BioAssay (EPA / NIEHS)
